The values you see were collected from the Human Domainome abundance scans (Beltran et al. 2025).

B1: Homeobox protein cut-like 2, residues 895 to 963; numbered along this chain, O14529 (parent)
chain: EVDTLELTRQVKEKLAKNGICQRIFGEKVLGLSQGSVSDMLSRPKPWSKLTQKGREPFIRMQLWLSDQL

# Variants of: B1
# test description: abundance fitness (aPCA) (normalised: wild type 0, dead -1); higher = more abundant; growth selection in yeast, the domain comes from the species named
# condition description: Homo sapiens
Classify as follows. Reported abundance fitness greater than or equal to -0.2: rule met. Reported abundance fitness below: rule not met.

Given the entry N18I , answer whether its abundance fitness meets or surpasses -0.2. rule met

Given the entry Q52E , answer whether its abundance fitness meets or surpasses -0.2. rule met

Given the entry G31L , answer whether its abundance fitness meets or surpasses -0.2. rule not met

Given the entry G35Y , answer whether its abundance fitness meets or surpasses -0.2. rule met

Given the entry R60G , answer whether its abundance fitness meets or surpasses -0.2. rule not met

Given the entry L5Y , answer whether its abundance fitness meets or surpasses -0.2. rule met

Given the entry R55C , answer whether its abundance fitness meets or surpasses -0.2. rule not met

Given the entry L65G , answer whether its abundance fitness meets or surpasses -0.2. rule not met

Given the entry Q62M , answer whether its abundance fitness meets or surpasses -0.2. rule met

Given the entry E13A , answer whether its abundance fitness meets or surpasses -0.2. rule met

Given the entry V37M , answer whether its abundance fitness meets or surpasses -0.2. rule not met

Given the entry E56P , answer whether its abundance fitness meets or surpasses -0.2. rule not met

Given the entry F25V , answer whether its abundance fitness meets or surpasses -0.2. rule not met

Given the entry P44C , answer whether its abundance fitness meets or surpasses -0.2. rule met

Given the entry E13P , answer whether its abundance fitness meets or surpasses -0.2. rule met

Given the entry C21W , answer whether its abundance fitness meets or surpasses -0.2. rule met

Given the entry L65I , answer whether its abundance fitness meets or surpasses -0.2. rule not met

Given the entry S42M , answer whether its abundance fitness meets or surpasses -0.2. rule met

Given the entry Q62G , answer whether its abundance fitness meets or surpasses -0.2. rule met

Given the entry P44N , answer whether its abundance fitness meets or surpasses -0.2. rule not met

Given the entry A16L , answer whether its abundance fitness meets or surpasses -0.2. rule met

Given the entry Q52T , answer whether its abundance fitness meets or surpasses -0.2. rule met

Given the entry I59N , answer whether its abundance fitness meets or surpasses -0.2. rule met

Given the entry I20W , answer whether its abundance fitness meets or surpasses -0.2. rule met

Given the entry V29Q , answer whether its abundance fitness meets or surpasses -0.2. rule not met

Given the entry F58N , answer whether its abundance fitness meets or surpasses -0.2. rule not met

Given the entry D3N , answer whether its abundance fitness meets or surpasses -0.2. rule met

Given the entry M40P , answer whether its abundance fitness meets or surpasses -0.2. rule not met

Given the entry V29G , answer whether its abundance fitness meets or surpasses -0.2. rule met

Given the entry Q52N , answer whether its abundance fitness meets or surpasses -0.2. rule not met

Given the entry L50V , answer whether its abundance fitness meets or surpasses -0.2. rule not met

Given the entry P44V , answer whether its abundance fitness meets or surpasses -0.2. rule met

Given the entry W64G , answer whether its abundance fitness meets or surpasses -0.2. rule not met

Given the entry S42R , answer whether its abundance fitness meets or surpasses -0.2. rule met

Given the entry Q22A , answer whether its abundance fitness meets or surpasses -0.2. rule met

Given the entry D67H , answer whether its abundance fitness meets or surpasses -0.2. rule not met

Given the entry L65K , answer whether its abundance fitness meets or surpasses -0.2. rule not met

Given the entry L7P , answer whether its abundance fitness meets or surpasses -0.2. rule met

Given the entry W64L , answer whether its abundance fitness meets or surpasses -0.2. rule not met

Given the entry P44I , answer whether its abundance fitness meets or surpasses -0.2. rule met

Given the entry L7K , answer whether its abundance fitness meets or surpasses -0.2. rule met

Given the entry M61D , answer whether its abundance fitness meets or surpasses -0.2. rule not met

Given the entry S38Q , answer whether its abundance fitness meets or surpasses -0.2. rule met

Given the entry D39M , answer whether its abundance fitness meets or surpasses -0.2. rule met

Given the entry Q22G , answer whether its abundance fitness meets or surpasses -0.2. rule not met

Given the entry G19W , answer whether its abundance fitness meets or surpasses -0.2. rule not met
